experiment: absolute recovery over mixed-bed multilayer solid-phase extraction; higher = better recovery; conditions: surface water; enrichment method: SPE
MEASURED_ATTRIBUTE: absolute recovery
Answer by giving the amount and then stating its unit.

absolute recovery lookup needed for CCc1ccc(C(=O)NN(C(=O)c2cc(C)cc(C)c2)C(C)(C)C)cc1 , thanks.
111%

# lookup: absolute recovery of CCC(C)OC(=O)N1CCCCC1CCO (centres undefined)
91.8%

Record request: absolute recovery value, item COC(=O)C(Cc1ccccc1)NC(=O)C([NH3+])CC(=O)[O-] (centres undefined)
41.1%

Would you kindly share the measured absolute recovery for O=C([O-])C(c1ccccc1)C1CCCC[NH2+]1 (centres undefined) ?
77.4%

Using the record for COC(=O)c1ccccc1S(=O)(=O)[N-]C(=O)Nc1nc(C)nc(OC)n1 , report its absolute recovery.
95.2%

For the compound CCCCOCCOCCOCc1cc2c(cc1CCC)OCO2 [Piperonyl-butoxide] , what absolute recovery is on record?
66.7%

Request the reported absolute recovery associated with CCOC(=O)C1=NN(c2ccc(Cl)cc2Cl)C(C)(C(=O)OCC)C1 (centres undefined)
107%

Look at this compound and give its reported absolute recovery. COc1ccc(C(=CC(=O)N2CCOCC2)c2ccc(Cl)cc2)cc1OC
81.4%

What value of absolute recovery has been reported for the following compound? CC(C)N(C(=O)CS(=O)(=O)[O-])c1ccccc1
94.4%
